# credit: paper PMC10247784

Target Or Test System: mouse Tas2r105 (Mus musculus, UniProt Q9JKT4)
Construct: expressed in transfected cells; host or cells: HEK293T-Gα16gust44
Sequence (Q9JKT4 1-300): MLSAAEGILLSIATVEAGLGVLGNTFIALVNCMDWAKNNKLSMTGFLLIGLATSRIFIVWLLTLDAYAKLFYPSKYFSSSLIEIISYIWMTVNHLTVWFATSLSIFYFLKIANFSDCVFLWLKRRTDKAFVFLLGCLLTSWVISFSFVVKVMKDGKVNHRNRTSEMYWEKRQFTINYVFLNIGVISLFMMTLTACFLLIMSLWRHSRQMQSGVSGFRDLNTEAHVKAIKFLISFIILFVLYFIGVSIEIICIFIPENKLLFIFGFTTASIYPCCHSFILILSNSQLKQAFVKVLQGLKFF
Assay Protocol: Calcium imaging assay (FLIPR), HEK293T-Gα16gust44 cells transfected with mouse Tas2r105
Format: cell-based
Run Parameters: Time 128.781 s
# maps each entry to its RLU
Record the value in RLU, omitting the unit from your answer.

Exercise: Please list RLU recorded for the compound C[C@H](CCC(=O)NCC(=O)O)[C@H]1CC[C@H]2[C@@H]3[C@H](O)C[C@@H]4C[C@H](O)CC[C@]4(C)[C@H]3C[C@H](O)[C@]12C [Glycocholic Acid, glycocholic acid]
Key: 520.174

Exercise: Please list RLU recorded for the compound C[C@H](CCC(=O)O)[C@H]1CC[C@H]2[C@@H]3CC[C@@H]4C[C@H](O)CC[C@]4(C)[C@H]3CC[C@]12C [Lithocholic Acid, lithocholic acid]
Key: 309.382

Exercise: Please list RLU recorded for the compound C[C@H](CCC(=O)O)[C@H]1CC[C@H]2[C@@H]3CC[C@@H]4C[C@H](O)CC[C@]4(C)[C@H]3C[C@H](O)[C@]12C [Deoxycholic Acid, deoxycholic acid]
Key: 158.603

Exercise: Please list RLU recorded for the compound C[C@H](CCC(=O)O)[C@H]1CC[C@H]2[C@@H]3[C@H](O)C[C@@H]4C[C@H](O)CC[C@]4(C)[C@H]3C[C@H](O)[C@]12C [Cholic Acid, cholic acid]
Key: 519.484

----------
# maps each entry to its RLU
Target Or Test System: mouse Tas2r105 (Mus musculus)
Construct: expressed in transfected cells; host or cells: HEK293T-Gα16gust44
Assay Protocol: Calcium imaging assay (FLIPR), HEK293T-Gα16gust44 cells transfected with mouse Tas2r105
Assay type: cell-based
Run Parameters: Time 122.781 s
Record the value in RLU, omitting the unit from your answer.

Completed entries (count: 3):
[
  {
    "Structure": "C[C@H](CCC(=O)O)[C@H]1CC[C@H]2[C@@H]3CC[C@@H]4C[C@H](O)CC[C@]4(C)[C@H]3CC[C@]12C",
    "RLU / RLU": 284.505
  },
  {
    "Structure": "C[C@H](CCC(=O)O)[C@H]1CC[C@H]2[C@@H]3[C@H](O)C[C@@H]4C[C@H](O)CC[C@]4(C)[C@H]3C[C@H](O)[C@]12C",
    "RLU / RLU": 538.707
  },
  {
    "Structure": "C[C@H](CCC(=O)O)[C@H]1CC[C@H]2[C@@H]3CC[C@@H]4C[C@H](O)CC[C@]4(C)[C@H]3C[C@H](O)[C@]12C",
    "RLU / RLU": 193.86
  }
]

Let's switch to this compound now.
Exercise: Please list RLU recorded for the compound C[C@H](CCC(=O)NCC(=O)O)[C@H]1CC[C@H]2[C@@H]3[C@H](O)C[C@@H]4C[C@H](O)CC[C@]4(C)[C@H]3C[C@H](O)[C@]12C
Key: 525.829

----------
Target Or Test System: human TAS2R1 (Homo sapiens)
Construct: expressed in transfected cells; host or cells: HEK293T-Gα16gust44
Sequence (Q9NYW7 1-299): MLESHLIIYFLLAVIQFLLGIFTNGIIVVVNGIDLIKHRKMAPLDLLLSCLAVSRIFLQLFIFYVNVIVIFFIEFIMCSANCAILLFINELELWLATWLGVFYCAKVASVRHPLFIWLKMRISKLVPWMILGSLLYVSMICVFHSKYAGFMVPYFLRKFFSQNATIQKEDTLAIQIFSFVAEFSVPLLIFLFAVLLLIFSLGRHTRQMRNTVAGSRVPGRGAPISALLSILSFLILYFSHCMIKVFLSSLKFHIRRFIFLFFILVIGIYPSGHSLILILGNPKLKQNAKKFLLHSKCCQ
Assay Protocol: Calcium imaging assay (FLIPR), HEK293T-Gα16gust44 cells transfected with human TAS2R1
Format: cell-based
Run Parameters: Time 36.796 s
Outcome Measure: RLU (RLU)
Record the value in RLU, omitting the unit from your answer.

[
  {
    "Structure": "C[C@H](CCC(=O)O)[C@H]1CC[C@H]2[C@@H]3[C@H](O)C[C@@H]4C[C@H](O)CC[C@]4(C)[C@H]3CC[C@]12C",
    "RLU / RLU": 777.672
  },
  {
    "Structure": "C[C@H](CCC(=O)O)[C@H]1CC[C@H]2[C@@H]3[C@H](O)C[C@@H]4C[C@H](O)CC[C@]4(C)[C@H]3C[C@H](O)[C@]12C",
    "RLU / RLU": 600.729
  },
  {
    "Structure": "C[C@H](CCC(=O)O)[C@H]1CC[C@H]2[C@@H]3CC[C@@H]4C[C@H](O)CC[C@]4(C)[C@H]3CC[C@]12C",
    "RLU / RLU": 563.041
  }
]

Let's switch to this molecule now.
Exercise: Please list RLU recorded for the molecule C[C@H](CCC(=O)O)[C@H]1CC[C@H]2[C@@H]3[C@@H](O)C[C@@H]4C[C@H](O)CC[C@]4(C)[C@H]3CC[C@]12C
Key: 614.691

----------
# maps each entry to its Δ F/F
Tested on: HEK293T-Gα16gust44 cells transfected with empty vector (mock)
Assay Protocol: Calcium imaging assay (FLIPR), empty vector control (mock)
Type: cell-based
Run Parameters: Mock, sheet Tas2r105; conc. 0,003 mM
API note: the answer field is a bare number with no unit suffix.

[
  {
    "Compound": "C[C@H](CCC(=O)NCC(=O)O)[C@H]1CC[C@H]2[C@@H]3[C@H](O)C[C@@H]4C[C@H](O)CC[C@]4(C)[C@H]3C[C@H](O)[C@]12C [Glycocholic Acid, glycocholic acid]",
    "Target Or Test System": "HEK293T-Gα16gust44 cells transfected with empty vector (mock)",
    "Recorded Number": -0.01717
  },
  {
    "Compound": "C[C@H](CCC(=O)O)[C@H]1CC[C@H]2[C@@H]3CC[C@@H]4C[C@H](O)CC[C@]4(C)[C@H]3C[C@H](O)[C@]12C [Deoxycholic Acid, deoxycholic acid]",
    "Target Or Test System": "HEK293T-Gα16gust44 cells transfected with empty vector (mock)",
    "Recorded Number": -0.01449
  },
  {
    "Compound": "C[C@H](CCC(=O)O)[C@H]1CC[C@H]2[C@@H]3[C@H](O)C[C@@H]4C[C@H](O)CC[C@]4(C)[C@H]3C[C@H](O)[C@]12C [Cholic Acid, cholic acid]",
    "Target Or Test System": "HEK293T-Gα16gust44 cells transfected with empty vector (mock)",
    "Recorded Number": -0.01645
  }
]

Let's switch to this compound now.
Exercise: Please list Δ F/F recorded for the compound C[C@H](CCC(=O)O)[C@H]1CC[C@H]2[C@@H]3CC[C@@H]4C[C@H](O)CC[C@]4(C)[C@H]3CC[C@]12C [Lithocholic Acid, lithocholic acid]
Key: -0.00295

----------
Target Or Test System: human TAS2R14 (Homo sapiens, UniProt Q9NYV8)
Construct: expressed in transfected cells; host or cells: HEK293T-Gα16gust44
Sequence (Q9NYV8 whole entry): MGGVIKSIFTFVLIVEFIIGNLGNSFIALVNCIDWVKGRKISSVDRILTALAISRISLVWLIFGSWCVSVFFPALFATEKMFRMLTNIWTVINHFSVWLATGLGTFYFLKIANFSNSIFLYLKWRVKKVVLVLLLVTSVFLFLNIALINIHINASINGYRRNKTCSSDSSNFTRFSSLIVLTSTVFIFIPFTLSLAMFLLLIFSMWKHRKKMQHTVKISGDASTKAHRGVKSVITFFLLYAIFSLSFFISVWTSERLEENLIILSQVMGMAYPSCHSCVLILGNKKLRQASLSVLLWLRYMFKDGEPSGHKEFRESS
Assay Protocol: Calcium imaging assay (FLIPR), HEK293T-Gα16gust44 cells transfected with human TAS2R14
Assay type: cell-based
Run Parameters: TAS2R14 trace; Time (s) 197.578 (Taurocholic Acid 197.563, Chenodeoxycholic Acid 197.546)
So basically: is RLU under 700 RLU? Then Met. Not under? Then Not met.

[
  {
    "Structure": "C[C@H](CCC(=O)O)[C@H]1CC[C@H]2[C@@H]3[C@H](O)C[C@@H]4C[C@H](O)CC[C@]4(C)[C@H]3C[C@H](O)[C@]12C",
    "Target Or Test System": "human TAS2R14 (Homo sapiens, UniProt Q9NYV8)",
    "Label": "Not met"
  },
  {
    "Structure": "C[C@H](CCC(=O)NCCS(=O)(=O)O)[C@H]1CC[C@H]2[C@@H]3CC[C@@H]4C[C@H](O)CC[C@]4(C)[C@H]3CC[C@]12C",
    "Target Or Test System": "human TAS2R14 (Homo sapiens, UniProt Q9NYV8)",
    "Label": "Met"
  },
  {
    "Structure": "C[C@H](CCC(=O)O)[C@H]1CC[C@H]2[C@@H]3[C@H](O)C[C@@H]4C[C@H](O)CC[C@]4(C)[C@H]3CC[C@]12C",
    "Target Or Test System": "human TAS2R14 (Homo sapiens, UniProt Q9NYV8)",
    "Label": "Met"
  }
]

Exercise: hey, is RLU for C[C@H](CCC(=O)NCC(=O)O)[C@H]1CC[C@H]2[C@@H]3[C@H](O)C[C@@H]4C[C@H](O)CC[C@]4(C)[C@H]3C[C@H](O)[C@]12C lower than 700 RLU or not?
Key: Met
